The values you see were collected from PubChem BioAssay (NCI).

system: OVCAR-4 ovarian; experiment: NCI tumour cell line growth inhibition, 48 h
metric: TGI (µM)
Quick note: give the figure in µM, leave out the unit.

Example cases with answers are listed next.
[[record]]
compound = "COc1ccc2c(c1)cn1c3ccc(O)cc3[nH]c(=O)c21"
unit_abbrev = "µM"
observed_value = 13.4

[[record]]
compound = "Cc1cccc2c1O/C(=C\\c1ccc([N+](=O)[O-])o1)C2=O"
unit_abbrev = "µM"
observed_value = 8.06


Then there is this compound:
Lab entry: OVCAR-4 ovarian assay, compound `CC(C)(C)OC(=O)CN1CCc2c(sc3ncnc(N/N=C/c4cccc5ccccc45)c23)C1` , TGI = 14.1

====

test system: A498 renal; experiment: NCI tumour cell line growth inhibition, 48 h; in the data active = GI50 below about 0.43 µM; inactive = the rest
Output constraint: value belongs to 1 (yes) (active), 0 (no) (inactive)

Consider the following illustrative entries.
[[record]]
compound = "C/C1=C\\C/C=C(\\C)[C@H]2CC(CC/C(C)=C/CC1)[C@](C)(C=O)O2"
group_label = "0 (no)"

[[record]]
compound = "NC(=S)N/N=C\\c1nccc2c(N)cccc12"
group_label = "1 (yes)"

[[record]]
compound = "CCCCCCNc1nc(N2CCOCC2)c2[nH]c(NCCCCCC)nc2n1"
group_label = "0 (no)"


Moving on to the next compound.
IN: Could you kindly confirm the outcome this assay logged for `COc1ccc(/C=C/C(=O)c2cc3c(N)c(C(=O)Nc4ccccc4C)sc3nc2C)cc1` ?
OUT: 1 (yes)

====

Each entry below carries its reported TGI.
tested on: TK-10 renal; experiment: NCI tumour cell line growth inhibition, 48 h
Kindly provide the numeric value in µM only, without the unit symbol.

These recorded examples may help you get a feel for the data.
[[record]]
compound = "CC(=O)OC1CCC2(C)C(=CCC3C4CCC5(OC6CC(C)CN(C(C)=O)C6C5C)C(C)=C4C(=O)C32)C1 (stereo not given)"
metric = "TGI"
observed_value = 56.7

[[record]]
compound = "O=C1/C(=C/c2ccccc2)CCc2ccccc21"
metric = "TGI"
observed_value = 29.2

[[record]]
compound = "C/C1=C/C(=O)O[C@@H]2C[C@@H](CC[C@H](C)/C=C\\C=C\\CC1)O[C@@](OCCc1ccccc1)([C@@H]1CSC(=O)N1)C2"
metric = "TGI"
observed_value = 0.287

[[record]]
compound = "c1cc[c]([Sn]([S]c2cccc3cccnc23)([S]c2cccc3cccnc23)[c]2ccccc2)cc1"
metric = "TGI"
observed_value = 0.417

[[record]]
compound = "CCN(CC)CCOc1ccc2c(c1)C(=O)c1cc(OCCN(CC)CC)ccc1-2"
metric = "TGI"
observed_value = 90.9

[[record]]
compound = "C[S+](C)CC(=O)c1ccc2c(c1)Sc1ccccc1O2"
metric = "TGI"
observed_value = 16.3

[[record]]
compound = "C=C1CC2(CCCC3(CC(=C)C(=O)O3)C2(C)C)OC1=O (stereo not given)"
metric = "TGI"
observed_value = 6.31

[[record]]
compound = "COc1ccc(N2C(=O)[C@@H]3[C@H](C2=O)c2[nH]c4ccccc4c2C2CCC(C(C)(C)C)C[C@@H]23)cc1 (stereo not given in full)"
metric = "TGI"
observed_value = 74.6


Now look at this entry.
The compound listed as `CCCCCCNc1nc(N2CCOCC2)c2[nH]c(NCCCCCC)nc2n1` shows TGI equal to 3.45
